- target_system: T1, mouse DLL4 extracellular domain (mouse, UniProt Q9JI71 27-532)
- T1 construct: extracellular domain; also called muDLL4 ECD; murine DLL4
- T1 sequence (Q9JI71 27-532): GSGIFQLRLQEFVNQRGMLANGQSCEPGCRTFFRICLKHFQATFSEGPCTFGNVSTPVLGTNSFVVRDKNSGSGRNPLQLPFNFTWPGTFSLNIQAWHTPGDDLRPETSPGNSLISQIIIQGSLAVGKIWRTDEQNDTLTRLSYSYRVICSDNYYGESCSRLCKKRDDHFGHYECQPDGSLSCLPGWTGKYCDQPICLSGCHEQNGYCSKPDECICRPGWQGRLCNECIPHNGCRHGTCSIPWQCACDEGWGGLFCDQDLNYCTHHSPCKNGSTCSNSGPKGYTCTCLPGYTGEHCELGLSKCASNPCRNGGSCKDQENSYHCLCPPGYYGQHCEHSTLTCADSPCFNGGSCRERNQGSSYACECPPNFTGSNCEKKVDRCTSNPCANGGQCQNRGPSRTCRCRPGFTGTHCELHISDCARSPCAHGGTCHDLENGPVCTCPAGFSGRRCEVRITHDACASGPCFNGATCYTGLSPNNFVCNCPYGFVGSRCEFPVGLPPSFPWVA
- test_description: SPR (Biacore)
measurement_type: kon
Write the numeric value and append its unit.

Inquiry: // returns reported kon for input h1A11.H2 (antibody, V domains shown, also called h1A11.H2 VH / h1A11.E12 VL) VH: EVQLVESGGGLVQPGGSLRLSCAASGFTFGNFPMSWVRQAPGKGLEWVASISSSDSWATIGDSVKGRFTISRDNAKNSLYLQMNSLRAEDTAVYYCARGYYNSPFAFWGQGTLVTVSS VL: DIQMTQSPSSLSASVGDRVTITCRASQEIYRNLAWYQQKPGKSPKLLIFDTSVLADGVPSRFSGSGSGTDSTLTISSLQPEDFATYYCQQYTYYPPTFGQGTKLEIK
Reply text: 154000 M⁻¹ s⁻¹
